Test system: UACC-62 melanoma
Experiment: NCI tumour cell line growth inhibition, 48 h; in the data active = GI50 below about 0.43 µM; inactive = the rest
Outcomes: active, inactive

>  <compound>
CC(=O)[C@H]1CCC/C=C/[C@@H]2C[C@H](O)C[C@H]2[C@H](O)/C=C/C(=O)O1

>  <tested.system>
UACC-62 melanoma

>  <assigned.category>
inactive

$$$$
>  <compound>
CC(=O)N1N=C(c2ccc(Nc3nc(Nc4ccc(F)cc4)nc(Nc4ccc(F)cc4)n3)cc2)CC1c1ccc(N(C)C)cc1 (stereo not drawn)

>  <tested.system>
UACC-62 melanoma

>  <assigned.category>
inactive

$$$$
>  <compound>
CC(C)CCCCCCCCCCCCC(=O)NCC(=O)NC1C(O)C(O)C(Nc2ncnc3nc[nH]c23)OC1C(O)CO (stereo not drawn)

>  <tested.system>
UACC-62 melanoma

>  <assigned.category>
active

$$$$
